- method.notes: gradient 5% acetonitrile 3 min, to 50% in 2 min, to 85% in 15 min, held 3 min, 100 µL/min
- run.conditions: column: Zorbax Extend-C18 2.1 x 50 mm; eluents: water / acetonitrile, 0.1% formic acid
property: RP-LC retention time (s)
Lab book: enter the figure in s, no units written.

# RP-LC retention time (compound: CCN(CC)CCNC(=O)c1nnc(-c2ccc(S(=O)(=O)N3CCCC3)cc2)o1 ) is 670

RP-LC retention time in this record for COc1ccccc1CNC(=O)c1c(O)c2cccnc2[nH]c1=O : 933

The value of RP-LC retention time measured for the compound Cc1ccc(Nc2c(-c3ccc([N+](=O)[O-])cc3)nc3cc(C)ccn23)cc1 turned out to be 790

RP-LC retention time measured on CC(C)n1c(N2CCN(C(=O)c3[nH]nc4c3CCc3ccccc3-4)CC2)cc(=O)n(C(C)C)c1=O = 872

Quick note, RP-LC retention time for CC(=O)Nc1ccc(-n2cnc(C(=O)NC(C)CCc3ccccc3)c2)nc1 (stereo not given) landed at 744

###

- method.notes: gradient 5% acetonitrile 3 min, to 50% in 2 min, to 85% in 15 min, held 3 min, 100 µL/min
- run.conditions: column: Zorbax Extend-C18 2.1 x 50 mm; eluents: water / acetonitrile, 0.1% formic acid
property: RP-LC retention time (s)
Just the number in s, nothing appended.

The compound listed as Cc1[nH]c(C(=O)N2CCCC(C(=O)NC(C)c3ccccc3)C2)c(C)c1C(=O)OC(C)C (configuration not stated) shows RP-LC retention time equal to 896

Form: compound = Cc1nc(N2CCN(C(=O)COc3ccc(Cl)cc3Cl)CC2)cc(-n2cccn2)n1 ; RP-LC retention time = 894

Entry O=C(c1ccc[nH]1)N1CCN(C(=O)c2ccco2)CC1 ; RP-LC retention time = 600

// RP-LC retention time lookup, compound = Cc1ccc(CNC(=O)c2ccc3c(c2)N(C)C(=O)C2CCCCN32)cc1 (configuration not stated) , result: 908

CCNS(=O)(=O)c1cccnc1Nc1ccc(Cl)cc1 has a reported RP-LC retention time of 1030

RP-LC retention time recorded for this compound, COc1ccc(NC(=O)N2CCC3(CC2)NC(=O)c2cc(Cl)ccc2N3C)cc1 , is 753

For record CCOC(=O)C1CCN(c2nc(=O)n(CC(=O)Nc3cccc(C)c3)c3ccccc23)CC1 the listed RP-LC retention time is 833

GET /value?item= CCOc1ccc(NS(=O)(=O)c2cc(-c3[nH]ncc3C(=O)N3CCCC3)oc2C)cc1 &field=RP-LC retention time returns 717

Per the records, this compound ( O=S(=O)(c1ccc2nncn2c1)N(Cc1cc(F)cc(F)c1)c1cc(F)cc(F)c1 ) has RP-LC retention time equal to 910

Lab note: measured RP-LC retention time of CC(=O)c1cccc(NC(=O)N2CCc3c(c(COc4ccc(F)cc4)nn3C)C2)c1 was 801

Value of RP-LC retention time reported for the compound CSc1ccc(-c2nc3cnccn3c2Nc2ccccc2C)cc1 is 974

In plain terms, CN(C)C(=O)c1cc2c(s1)CCC(C(=O)N1CCN(C3CCCC3)CC1)C2 (configuration not stated) has a documented RP-LC retention time of 573

###

- method.notes: gradient 5% acetonitrile 3 min, to 50% in 2 min, to 85% in 15 min, held 3 min, 100 µL/min
- run.conditions: column: Zorbax Extend-C18 2.1 x 50 mm; eluents: water / acetonitrile, 0.1% formic acid
property: RP-LC retention time (s)
Give just the numeric value; s need not be written.

get_value(item= CCc1ccc(C2=C(C)C(N3CCCN(C(=O)C4CCCCC4)CC3)=NS2(=O)=O)cc1 , readout=RP-LC retention time) returns 976

Item: CC(Oc1ccc2c(c1)OCO2)C(=O)NCCn1nc(-c2cccs2)ccc1=O (stereo unspecified) | RP-LC retention time: 712

Note to self: RP-LC retention time recorded for COc1ccc(OC)c(S(=O)(=O)N2CCC(c3cc(-c4cccc(C)c4)n[nH]3)CC2)c1 was 960

// RP-LC retention time lookup, compound = COc1cccc(NC(=O)c2cc(C)n3nccc3n2)c1 , result: 874

Entry Cc1cc(Cl)ccc1S(=O)(=O)N1CC(c2nc(-c3ccncc3)no2)C1 , RP-LC retention time reported as 931

Record CCCCCn1c(=O)c2ccccc2n(Cc2nc(-c3ccc(OC)cc3)no2)c1=O . Reported RP-LC retention time: 1210

RP-LC retention time reading for O=C(CSCc1ccccc1)NCC1(c2cccs2)CCOCC1 : 819

Form: compound = Cc1cc(NS(=O)(=O)c2ccc(Nc3nc(-c4ccc(Cl)c(Cl)c4)cs3)cc2)no1 ; RP-LC retention time = 1130

Reported RP-LC retention time of Cc1nc(NC(=O)CNC(=O)c2c[nH]c3ccccc23)sc1C(=O)N(C)C : 614

Per the record, CCc1ccc(-n2cc(C(=O)OCc3cc(=O)n4ccccc4n3)c3ccccc3c2=O)cc1 has RP-LC retention time of 991

Item: CCCCOc1ccc(CNC(=O)c2cc3c(=O)n(C)ccc3n2C)cc1 | RP-LC retention time: 848
